From: ChEMBL document CHEMBL1201862

- Tested on: ACHN
- Assay text: NCI tumour cell line growth inhibition, 48 h
The source made the active and inactive calls. Cut-off read from the data, not from the text of the source: active = GI50 up to about 1.1 µM and inactive = higher.
Reported GI50 values follow for various compounds
Value kind: GI50

>>> recorded_measurement("O=c1oc2c3ccc4ccccc4c3n(CCN3CCOCC3)c2c2ccccc12")
"5.6 µM (inactive)"
>>> recorded_measurement("O=C(O)c1ccc(C(=O)O)c2c(C(=O)O)ccc(C(=O)O)c12")
"> 100 µM (inactive)"
>>> recorded_measurement("COC(=O)c1c(C)c2c(c(C)c1C(=O)OC)-c1c(C)ccc3ccc(C)c-2c13")
"> 100 µM (inactive)"
>>> recorded_measurement("c1ccc2nc3c(nc2c1)sc1ccccc13")
"14.3 µM (inactive)"
>>> recorded_measurement("Cc1c(C2CCSc3ccccc3N2)sc2ccccc12 (stereo not given)")
"> 100 µM (inactive)"
